molecular target: HIV-1 CANC (Human immunodeficiency virus type 1 group M subtype B, UniProt P12493); assay: Disassembly inhibitor test for HIV (DITH), stability of preassembled CANC particles, with TEM; details: after DITH, negative staining, 10 µM
PARAMETER: TEM of CANC particles after incubation in disassembly buffer

- LINE_NOTATION: "Cc1[nH]c2ccccc2c1CC(=O)N[C@@H](Cc1ccccc1)C(=O)N(C)c1ccccc1"
  RESULT_VALUE: "intact CANC particles"
- LINE_NOTATION: "CN(C(=O)[C@H](Cc1ccccc1)NC(=O)NCc1nc2ccccc2[nH]1)c1ccccc1"
  RESULT_VALUE: "intact CANC particles"
- LINE_NOTATION: "CN(C(=O)[C@H](Cc1ccccc1)NC(=O)Cc1n[nH]c2ccccc12)c1ccccc1"
  RESULT_VALUE: "intact CANC particles"
